experiment: Half life in Wistar rat at 10 mg/kg, po measured up to 72 hrs by HPLC analysis; format: ADME, organism-based; details: in vivo
endpoint-name: half-life (h)
// units = h; emit number, no label

Q: I would be grateful if you could share the reported half-life for `Fc1ccc(-c2nnc(N3CCN(c4ccccn4)CC3)o2)c(F)c1` .
Ans: 12.3

* * *

biological target: Acetylcholinesterase (Homo sapiens, UniProt P22303)
Sequence (P22303 whole entry): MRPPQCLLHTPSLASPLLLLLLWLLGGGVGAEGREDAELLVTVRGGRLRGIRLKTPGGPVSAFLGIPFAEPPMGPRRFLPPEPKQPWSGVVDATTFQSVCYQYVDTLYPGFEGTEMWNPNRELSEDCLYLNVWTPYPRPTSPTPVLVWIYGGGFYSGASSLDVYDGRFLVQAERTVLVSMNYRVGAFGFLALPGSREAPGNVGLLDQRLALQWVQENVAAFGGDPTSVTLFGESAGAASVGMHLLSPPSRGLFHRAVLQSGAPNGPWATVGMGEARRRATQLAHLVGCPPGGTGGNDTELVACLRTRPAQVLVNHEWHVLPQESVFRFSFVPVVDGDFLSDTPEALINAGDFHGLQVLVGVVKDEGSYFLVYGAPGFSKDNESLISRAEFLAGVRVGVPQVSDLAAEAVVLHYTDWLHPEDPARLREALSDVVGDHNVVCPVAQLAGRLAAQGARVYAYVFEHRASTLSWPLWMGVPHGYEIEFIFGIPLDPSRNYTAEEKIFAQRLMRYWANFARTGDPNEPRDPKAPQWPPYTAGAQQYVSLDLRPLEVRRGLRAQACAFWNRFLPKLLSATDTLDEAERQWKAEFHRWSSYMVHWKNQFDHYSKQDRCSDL
endpoint-name: Ki (nM)
# number only, unit nM dropped from output

Q: Please provide the recorded Ki for `Fc1ccc(-c2nnc(N3CCN(c4ccccn4)CC3)o2)c(F)c1` , tested on Acetylcholinesterase (Homo sapiens, UniProt P22303).
Ans: 30
